Origin of values: patent US20210220408A1

Assign IC50 to each entry below.
molecular target: aryl hydrocarbon receptor (AHR) (Homo sapiens); assay: DRE-Luciferase reporter high-throughput screen (AHR antagonist, VAF347-activated)
Sequence (P35869 11-848): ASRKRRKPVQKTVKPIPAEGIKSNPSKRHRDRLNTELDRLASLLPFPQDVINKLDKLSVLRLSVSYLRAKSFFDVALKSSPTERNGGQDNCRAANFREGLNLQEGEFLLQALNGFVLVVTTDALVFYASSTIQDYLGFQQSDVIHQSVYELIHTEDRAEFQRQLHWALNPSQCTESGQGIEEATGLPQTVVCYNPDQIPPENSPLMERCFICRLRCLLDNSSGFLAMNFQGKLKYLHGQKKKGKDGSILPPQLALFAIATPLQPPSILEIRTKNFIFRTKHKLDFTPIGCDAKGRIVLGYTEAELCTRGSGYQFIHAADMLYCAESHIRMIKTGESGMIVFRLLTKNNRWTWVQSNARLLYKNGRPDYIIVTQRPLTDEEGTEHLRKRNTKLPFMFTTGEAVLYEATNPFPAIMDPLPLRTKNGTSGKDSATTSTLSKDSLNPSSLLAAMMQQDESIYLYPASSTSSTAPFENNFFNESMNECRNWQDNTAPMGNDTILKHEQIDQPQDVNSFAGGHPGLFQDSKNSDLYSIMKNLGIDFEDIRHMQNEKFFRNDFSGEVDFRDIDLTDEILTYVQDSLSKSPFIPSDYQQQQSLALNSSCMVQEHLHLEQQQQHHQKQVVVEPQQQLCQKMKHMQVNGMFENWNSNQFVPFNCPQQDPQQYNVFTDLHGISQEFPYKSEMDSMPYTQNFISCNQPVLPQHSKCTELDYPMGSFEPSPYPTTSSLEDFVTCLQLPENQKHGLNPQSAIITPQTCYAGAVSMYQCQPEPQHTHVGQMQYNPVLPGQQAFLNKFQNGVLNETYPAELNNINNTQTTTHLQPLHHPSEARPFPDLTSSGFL

Report the value of IC50 obtained on aryl hydrocarbon receptor (AHR) (Homo sapiens) for CCn1c(-c2csc(N(C(C)=O)c3ccccc3)n2)nc2ccccc21 [39B] .
1 to 2 µM

System aryl hydrocarbon receptor (AHR) (Homo sapiens). Read-out IC50. Item O=C(NCCC1=CCCCC1)c1[nH]nc2c1CCCC2 [109B] . Report value.
1 to 2 µM

Jot down IC50 (aryl hydrocarbon receptor (AHR) (Homo sapiens)) of CC(=O)c1sc(-c2ccc(Oc3ncnc4sccc34)cc2)nc1C [64A] .
1 to 2 µM

Identify measured IC50 obtained with aryl hydrocarbon receptor (AHR) (Homo sapiens) for Cc1nc(NC(=O)c2cc3nc(N(C)C)n(-c4ccccc4)c3s2)sc1C [49A] .
1 to 2 µM

Lab note: record IC50 of Cc1ccc(N2CCN(C(=O)Nc3cc(F)cc(F)c3)CC2)nn1 [78A] tested on aryl hydrocarbon receptor (AHR) (Homo sapiens).
1 to 2 µM

Fill: IC50 (aryl hydrocarbon receptor (AHR) (Homo sapiens)) for this compound Cc1c(C(=O)Nc2ccccc2)nnn1Cc1ccccc1 [26A]
1 to 2 µM

Given Cc1cccc(CSc2nncc3ccccc23)c1 [95B] , report its IC50 on aryl hydrocarbon receptor (AHR) (Homo sapiens).
0.5 to 1 µM

GET IC50 | system: aryl hydrocarbon receptor (AHR) (Homo sapiens) | item: COc1ccccc1NC(=O)c1sc2nc(N3CCOCC3)c3c(c2c1N)CCCC3 [52A]
1 to 2 µM

Provide the reported IC50 (system: aryl hydrocarbon receptor (AHR) (Homo sapiens)) for CS(=O)(=O)c1ccc(-c2csc(-c3cccs3)n2)cc1 [compound 61]
0.2 to 0.5 µM

Give reported IC50 for N#Cc1c(NC(=O)c2cnn3cccnc23)sc2c1CCC2 [32B] (aryl hydrocarbon receptor (AHR) (Homo sapiens))
1 to 2 µM
